compound | melting point
C[C@@H]1CNc2nc3c(N)nc4ccccc4c3n21 | 272 to 274 °C
Cc1ccc(S(=O)(=O)n2ccc3nc4c(N)nc5ccccc5c4n32)cc1 | 204 to 206 °C
Nc1nc2cc(Br)ccc2c2c1nc1n2CCCO1 | 273 to 276 °C
Nc1nc2ccccc2c2c1nc1n2CCCN1 | > 250 °C
CC1CCc2nc3c(N)nc4ccccc4c3n2N1 (stereo not drawn) | 241 to 243 °C
C[C@H]1CNc2nc3c(N)nc4ccccc4c3n21 | 265 to 273 °C
